protocol summary: Volume of distribution at steady state in dog at 1 mg/kg, iv
Assay type: ADME, organism-based, Canis lupus familiaris
Set-up: dose 1 mg/kg, route intravenous
conditions used: in vivo, read-out: Vdss
endpoint label: Vd (L/kg)
One number for each entry, in L/kg.

{"smiles str": "OC[C@H]1C[C@@H](n2nnc3c(N[C@@H]4C[C@H]4c4ccc(F)c(F)c4)nc(SCCC(F)(F)F)nc32)[C@H](O)[C@@H]1O", "Vd, L/kg": 5.6}

As a next step, examine the compound that follows.
Entry "CCCSc1nc(N[C@@H]2C[C@H]2c2ccc(F)c(F)c2)c2nnn([C@@H]3C[C@H](OCCO)[C@@H](O)[C@H]3O)c2n1" has what Vd? 3

* * *

target or test system: P2Y purinoceptor 12 (Homo sapiens)
Sequence (Q9H244 whole entry): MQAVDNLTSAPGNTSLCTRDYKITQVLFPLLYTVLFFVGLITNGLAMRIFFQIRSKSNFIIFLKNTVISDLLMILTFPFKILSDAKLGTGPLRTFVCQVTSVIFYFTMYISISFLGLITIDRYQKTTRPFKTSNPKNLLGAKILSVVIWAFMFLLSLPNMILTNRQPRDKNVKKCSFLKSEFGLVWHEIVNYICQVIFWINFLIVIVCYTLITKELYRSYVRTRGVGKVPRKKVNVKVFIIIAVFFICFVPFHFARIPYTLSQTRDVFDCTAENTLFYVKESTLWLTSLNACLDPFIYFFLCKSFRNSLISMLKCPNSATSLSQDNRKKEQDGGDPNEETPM
protocol summary: Displacement of [125I] labeled ligand from human P2Y12 receptor in human platelets
Answer each item with its documented log10 of Ki.
Recorded Ki (log10, nM)

Below, each entry is followed by its recorded log10 of Ki result.
{"smiles str": "OCCO[C@H]1C[C@@H](n2nnc3c(N[C@@H]4C[C@H]4c4ccc(F)c(F)c4)nc(SCCC(F)(F)F)nc32)[C@H](O)[C@@H]1O", "endpoint label": "log10 of Ki", "reported": -0.20}
{"smiles str": "CCCCNc1nc(SCCC)nc2c1nnn2[C@@H]1C[C@H](CO)[C@@H](O)[C@H]1O", "endpoint label": "log10 of Ki", "reported": 1.90}
{"smiles str": "OC[C@H]1C[C@@H](n2nnc3c(N[C@@H]4C[C@H]4c4ccccc4)nc(SCCC(F)(F)F)nc32)[C@H](O)[C@@H]1O", "endpoint label": "log10 of Ki", "reported": 0.70}
{"smiles str": "CCCSc1nc(N[C@@H]2C[C@H]2c2ccccc2)c2nnn([C@@H]3C[C@H](C(N)=O)[C@@H](O)[C@H]3O)c2n1", "endpoint label": "log10 of Ki", "reported": 0.20}
{"smiles str": "CCCSc1nc(N[C@@H]2C[C@H]2c2ccccc2)c2nnn([C@@H]3C[C@H](CO)[C@@H](O)[C@H]3O)c2n1.Cl", "endpoint label": "log10 of Ki", "reported": 0.80}
{"smiles str": "CCCSc1nc(N[C@@H]2C[C@H]2c2ccccc2)c2nnn([C@@H]3C[C@H](CO)[C@@H](O)[C@H]3O)c2n1", "endpoint label": "log10 of Ki", "reported": 0.70}

# evaluate next
Please report the recorded log10 of Ki for "CCCCNc1nc(SCCC)nc2c1nnn2[C@@H]1C[C@H](C(N)=O)[C@@H](O)[C@H]1O" . 1.30

* * *

I'd appreciate it if you could supply half-life values for the items below.
protocol summary: Half life in rat at 3 mg/kg, iv
Type: ADME, organism-based
Parameters: dose 3 mg/kg, route intravenous
conditions used: in vivo
Answer with the number, then the unit.

{"smiles str": "CCCCNc1nc(SCCC)nc2c1nnn2[C@@H]1C[C@H](CO)[C@@H](O)[C@H]1O", "endpoint label": "half-life", "reported": "1.2 h"}
{"smiles str": "OC[C@H]1C[C@@H](n2nnc3c(N[C@@H]4C[C@H]4c4ccc(F)c(F)c4)nc(SCCC(F)(F)F)nc32)[C@H](O)[C@@H]1O", "endpoint label": "half-life", "reported": "3 h"}

Query (compound): "OCCO[C@H]1C[C@@H](n2nnc3c(N[C@@H]4C[C@H]4c4ccc(F)c(F)c4)nc(SCCC(F)(F)F)nc32)[C@H](O)[C@@H]1O" ; field requested: half-life 2.5 h
